Item-by-item account of logP
Field format: numeric only.

Worked cases, answers included:
Compound | logP
Cc1nc(Br)c([N+](=O)[O-])n1C | 0.87
Cn1cnc([N+](=O)[O-])c1Br | 0.36

Asked: Would you kindly share the measured logP for "O=[N+]([O-])c1ncc[nH]1" ?
Given back: 0.11

Asked: What does the data say about its logP? Entry: "Cn1ccnc1[N+](=O)[O-]"
Given back: -0.17

Asked: Quick one: logP of "Cc1nc([N+](=O)[O-])c(Cl)n1C" ?
Given back: 0.34

====

// reported logP per item
# Assay: method code SF, from Suwinski, J.; Salwinska, E.; Watras, J.; Widel, M. (1985). Nitroimidazoles. VI. Partition coefficients and tautomerism of simple nitroimidazoles. 42(4)352-358.
Lab note: jot down the number only; don't add units.

Solved cases (5 shown):
Compound | logP
O=[N+]([O-])c1[nH]cnc1Br | 0.78
Cc1nc([N+](=O)[O-])cn1C | -0.24
Cn1cncc1[N+](=O)[O-] | 0.13
Cn1cnc(Cl)c1[N+](=O)[O-] | 0.69
Cc1nc([N+](=O)[O-])c(Br)n1C | 0.44

Asked: Give the measured logP of "Cc1nc(Cl)c([N+](=O)[O-])n1C" .
Given back: 0.87

Asked: Which logP reading was recorded for the compound "Cc1[nH]cnc1[N+](=O)[O-]" ?
Given back: 0.23

Asked: Tell me the measured logP of "Cc1nc(Br)n(C)c1[N+](=O)[O-]" , please.
Given back: 0.82

Asked: logP lookup needed for "Cn1cc([N+](=O)[O-])nc1Cl" , thanks.
Given back: 0.19

Asked: Return reported logP; argument: "Cn1cnc([N+](=O)[O-])c1"
Given back: -0.44

Asked: Which logP is reported for this compound? "Cc1nc([N+](=O)[O-])c(N)n1C"
Given back: -1.1

Asked: Using the record for "COc1[nH]c(C)nc1[N+](=O)[O-]" , report its logP.
Given back: 0.21

Asked: Any idea what its logP is? The compound is "Cn1cc([N+](=O)[O-])nc1Br"
Given back: 0.33

====

# Assay: method code SF, from Suwinski, J.; Salwinska, E.; Watras, J.; Widel, M. (1985). Nitroimidazoles. VI. Partition coefficients and tautomerism of simple nitroimidazoles. 42(4)352-358.
Please assign a class to every record based on measured logP, with ranges bottom bin (below 0.1), middle bin (0.1 to below 0.8), top bin (0.8 or more)

Compound | Label Class
COc1[nH]cnc1[N+](=O)[O-] | middle bin

Asked: Input "Cc1nc([N+](=O)[O-])c(Cl)[nH]1" ; output its category
Given back: top bin

Asked: Which bin should I file "Cn1c([N+](=O)[O-])cnc1Cl" under?
Given back: middle bin

====

# Assay: method code SF, from Suwinski, J.; Salwinska, E.; Watras, J.; Widel, M. (1985). Nitroimidazoles. VI. Partition coefficients and tautomerism of simple nitroimidazoles. 42(4)352-358.
Property Name: logP
Please state the value as a number alone, without comment.

Answered cases to consult:
Compound | logP
COc1c([N+](=O)[O-])nc(C)n1C | -0.09
Cc1c([N+](=O)[O-])ncn1C | -0.11
Cn1cnc(Br)c1[N+](=O)[O-] | 0.77
Cc1c([N+](=O)[O-])nc(Br)n1C | 0.39
Cc1[nH]c(Br)nc1[N+](=O)[O-] | 0.86
Cn1cnc([N+](=O)[O-])c1N | -1

Asked: Can you share its logP? I mean this compound: "Cc1nc([N+](=O)[O-])c(Br)[nH]1"
Given back: 1.14

Asked: Given the entry "COc1c([N+](=O)[O-])ncn1C" , report its measured logP.
Given back: 0.19

Each recorded value in this set is attributed to the SangsterLogP compilation.
